# method notes: Humidity stability investigation (92.5% RH, XRPD)
# Type: physicochemical
# measurement context: 92.5% RH (saturated KNO3), XRPD on day 0, 5, 10, 20 and 30
Structures can show the parent of a compound that is named as a salt.
measure name: Stability 92.5% RH

Some molecules with known Stability 92.5% RH results, for comparison:
COc1cc2c(cc1OCc1ccccc1)C(Cc1cccc(NS(C)(=O)=O)c1)NCC2 (stereo not drawn) [SIPI-409 Orotate]; Stable
COc1cc2c(cc1OCc1ccccc1)C(Cc1cccc(NS(C)(=O)=O)c1)NCC2 (stereo not drawn) [SIPI-409 Oxalate]; Hygroscopic
COc1cc2c(cc1OCc1ccccc1)C(Cc1cccc(NS(C)(=O)=O)c1)NCC2 (stereo not drawn) [SIPI-409 Sulfate]; Hygroscopic
COc1cc2c(cc1OCc1ccccc1)C(Cc1cccc(NS(C)(=O)=O)c1)NCC2 (stereo not drawn) [SIPI-409 Benzenesulfonate]; Hygroscopic
COc1cc2c(cc1OCc1ccccc1)C(Cc1cccc(NS(C)(=O)=O)c1)NCC2 (stereo not drawn) [SIPI-409 Nicotinate]; Hygroscopic

Now for the molecule whose Stability 92.5% RH we want.
Exam item: // query Stability 92.5% RH value for entry COc1cc2c(cc1OCc1ccccc1)C(Cc1cccc(NS(C)(=O)=O)c1)NCC2 (stereo not drawn) [SIPI-409 Glycolate]
Marked response: Stable
